assay: Volume of distribution in mouse at 1 mg/kg, iv; type: ADME, organism-based; conditions: in vivo, read-out: Vd
experimentalReadout: Vd (L/kg)
Quick reminder: number only, in L/kg, skip the unit.

Vd for CCS(=O)(=O)c1ccc(CNC(=O)c2ccc3c(c2)cc(Cc2ccc(Cl)cc2C(F)(F)F)n3CCF)cc1 is 0.193

====

experiment: Microsomal stability in rat liver microsomes assessed as half life; assay type: ADME, Microsome
experimentalReadout: half-life
// return the numeric value with its unit appended

Memo: CCS(=O)(=O)c1ccc(CNC(=O)c2ccc3c(c2)cc(Cc2ccccc2Br)n3C(C)C)cc1 , reported half-life: 12 min

Value of measured half-life for the entry CCS(=O)(=O)c1ccc(CNC(=O)c2ccc3c(c2)cc(Cc2ccc(F)cc2C(F)(F)F)n3C(C)C)cc1 : 64 min

Summary for this compound, CCS(=O)(=O)c1ccc(CNC(=O)c2ccc3c(c2)cc(Cc2ccc(Cl)cc2C(F)(F)F)n3C2CC2)cc1 : half-life is 102 min

half-life for CCS(=O)(=O)c1ccc(CNC(=O)c2ccc3c(c2)cc(Cc2ccc(Cl)cc2C(F)(F)F)n3C(C)C)cc1 is 116 min

Noted for CCS(=O)(=O)c1ccc(CNC(=O)c2ccc3c(c2)cc(Cc2ccccc2C(F)(F)F)n3C(C)C)cc1 : its half-life reads 43 min

For CCS(=O)(=O)c1ccc(CNC(=O)c2ccc3c(c2)cc(Cc2cccc(C(F)(F)F)c2)n3C(C)C)cc1 the compound record lists half-life as 19 min

The recorded half-life for entry CCc1ccccc1Cc1cc2cc(C(=O)NCc3ccc(S(=O)(=O)CC)cc3)ccc2n1C(C)C equals 12 min

# half-life of CCS(=O)(=O)c1ccc(CNC(=O)c2ccc3c(c2)cc(Cc2ccc(Cl)cc2C(F)(F)F)n3CCF)cc1 = 126 min

Record CCS(=O)(=O)c1ccc(CNC(=O)c2ccc3c(c2)cc(Cc2ccccc2OC)n3C(C)C)cc1 . Reported half-life: 12 min
